Target: UniProtKB Q9Y5Y9
Sequence (Q9Y5Y9 126-399 limits assumed): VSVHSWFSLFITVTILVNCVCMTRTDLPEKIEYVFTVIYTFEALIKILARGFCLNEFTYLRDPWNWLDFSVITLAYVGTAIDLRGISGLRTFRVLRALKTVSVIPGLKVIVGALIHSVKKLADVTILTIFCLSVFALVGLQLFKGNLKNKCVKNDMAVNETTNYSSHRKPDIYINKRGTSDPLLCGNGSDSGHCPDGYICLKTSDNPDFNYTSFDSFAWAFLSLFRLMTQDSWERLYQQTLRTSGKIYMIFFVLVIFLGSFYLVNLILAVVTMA
Sequence (Q9Y5Y9 660-890 limits assumed): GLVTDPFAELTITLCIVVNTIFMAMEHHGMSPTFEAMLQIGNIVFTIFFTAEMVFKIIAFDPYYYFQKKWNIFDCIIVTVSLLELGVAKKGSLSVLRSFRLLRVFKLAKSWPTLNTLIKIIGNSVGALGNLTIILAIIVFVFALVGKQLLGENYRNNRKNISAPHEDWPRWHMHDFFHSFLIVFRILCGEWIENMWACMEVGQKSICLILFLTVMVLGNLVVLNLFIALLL
Sequence (Q9Y5Y9 1148-1722 limits assumed): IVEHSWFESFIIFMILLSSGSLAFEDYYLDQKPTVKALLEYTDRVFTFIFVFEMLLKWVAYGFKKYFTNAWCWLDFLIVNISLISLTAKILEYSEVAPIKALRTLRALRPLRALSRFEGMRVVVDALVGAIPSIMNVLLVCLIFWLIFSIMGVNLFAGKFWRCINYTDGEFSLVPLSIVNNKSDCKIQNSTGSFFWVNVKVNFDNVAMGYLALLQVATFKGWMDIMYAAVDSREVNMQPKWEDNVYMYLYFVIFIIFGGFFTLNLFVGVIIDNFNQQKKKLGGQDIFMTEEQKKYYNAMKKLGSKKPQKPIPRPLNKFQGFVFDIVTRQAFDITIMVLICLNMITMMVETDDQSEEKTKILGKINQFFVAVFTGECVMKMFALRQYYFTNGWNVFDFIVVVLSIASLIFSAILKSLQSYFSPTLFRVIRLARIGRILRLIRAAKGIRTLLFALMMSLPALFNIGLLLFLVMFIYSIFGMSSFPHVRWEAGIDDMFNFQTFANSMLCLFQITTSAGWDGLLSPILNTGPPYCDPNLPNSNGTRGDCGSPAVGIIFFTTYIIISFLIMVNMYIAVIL
Assay: E-VIPR Assay Detecting and Measuring NaV Inhibition Properties
Details: HEK cells expressing a truncated form of human NaV 1.8; electrical stimulation, membrane potential FRET dyes; read-out: measured IC50 value in the E-VIPR Assay
pIC50: −log10 of the molar value.
Measured pIC50 by item
measuredMetric: pIC50

Cc1cc(-c2cc(=O)c3c(C(N)=O)nccc3[nH]2)c(C)cc1Cl : 5.70 to 6.30
COc1cccc2[nH]c(-c3ccc(C4(C(F)(F)F)CC4)cc3C)cc(=O)c12 : 5.70 to 6.30
Cc1cc(Cl)ccc1-c1cc(=O)c2ccccc2[nH]1 : 5.30 to 5.70
CC(C)CN(CC(C)C)c1nc2ccccc2cc1-c1cc(=O)c2c(C(N)=O)nccc2[nH]1 : 5.30 to 5.70
